Origin of the recorded values: patent US8653099B2

- Tested Target: canine TRPM8 (Canis lupus familiaris, UniProt Q1A7N1)
- Construct: expressed in transfected cells
- Sequence (Q1A7N1 1-1104): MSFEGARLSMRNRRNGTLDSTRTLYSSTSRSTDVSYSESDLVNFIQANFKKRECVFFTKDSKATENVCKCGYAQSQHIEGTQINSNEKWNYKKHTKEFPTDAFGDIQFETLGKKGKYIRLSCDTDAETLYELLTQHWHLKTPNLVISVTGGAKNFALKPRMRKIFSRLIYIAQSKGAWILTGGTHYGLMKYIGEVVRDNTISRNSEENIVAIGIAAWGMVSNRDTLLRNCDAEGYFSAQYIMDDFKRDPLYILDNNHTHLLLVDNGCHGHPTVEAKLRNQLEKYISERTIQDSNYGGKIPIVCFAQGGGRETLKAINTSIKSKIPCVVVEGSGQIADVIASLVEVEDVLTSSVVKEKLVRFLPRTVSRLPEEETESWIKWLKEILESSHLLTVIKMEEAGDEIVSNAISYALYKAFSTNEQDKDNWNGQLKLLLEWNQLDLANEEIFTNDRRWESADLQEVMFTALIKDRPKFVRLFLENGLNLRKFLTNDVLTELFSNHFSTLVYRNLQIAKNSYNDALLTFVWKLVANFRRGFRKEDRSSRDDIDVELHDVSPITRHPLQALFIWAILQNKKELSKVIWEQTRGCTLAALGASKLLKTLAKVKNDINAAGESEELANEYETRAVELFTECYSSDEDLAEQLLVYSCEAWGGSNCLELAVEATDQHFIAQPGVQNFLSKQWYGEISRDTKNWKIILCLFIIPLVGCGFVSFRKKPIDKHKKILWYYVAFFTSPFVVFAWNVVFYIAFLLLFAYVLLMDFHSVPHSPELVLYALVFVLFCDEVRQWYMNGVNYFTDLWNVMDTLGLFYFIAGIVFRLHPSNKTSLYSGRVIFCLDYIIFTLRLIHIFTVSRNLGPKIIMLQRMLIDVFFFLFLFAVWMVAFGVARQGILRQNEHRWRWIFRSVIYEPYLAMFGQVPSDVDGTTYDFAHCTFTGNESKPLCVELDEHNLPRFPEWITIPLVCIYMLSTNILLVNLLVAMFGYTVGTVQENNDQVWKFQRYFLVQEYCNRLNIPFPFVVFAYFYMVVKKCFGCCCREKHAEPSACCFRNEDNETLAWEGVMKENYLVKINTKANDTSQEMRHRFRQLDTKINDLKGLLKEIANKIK
- Experiment Description: In vitro canine TRPM8 functional assay (icilin-induced Ca2+ fluorescence, FLIPR/FDSS)
- Type: cell-based
- Protocol Conditions: HEK293 cells stably expressing canine TRPM8; icilin at approx. 80% maximal response; eight-point dose-response
Experimental Readout: IC50 (nM)
Your answer should be a plain number; it is taken to be in nM.

Q) Need IC50, item O=C(Nc1cccc2cn[nH]c12)C(Nc1ccccc1)c1ccc(C(F)(F)F)cc1 (stereo not shown)
A) 161

Q) Need IC50, item O=C(Nc1cccc2[nH]ncc12)C(Nc1ccccc1)c1ccc(C(F)(F)F)cc1 (stereo not shown)
A) 84.5

Q) Need IC50, item O=C(Nc1cccc2cnccc12)C(Nc1ccccc1F)c1ccc(Cl)cc1 (stereo not shown)
A) 96.8

Q) Need IC50, item O=C(Nc1cccc2cnccc12)C(Nc1ccccc1)c1cccc(C(F)(F)F)c1 (stereo not shown)
A) 109
